From: ChEMBL document CHEMBL1123907

Assign Ki to each entry below.
target: Muscarinic acetylcholine receptor; assay: Binding affinity against Muscarinic acetylcholine receptor was determined in homogenized rat cortex tissue using [3H]N-methylscopolamine as radioligand
Please respond with the number in nM and leave the unit unwritten.

For CN(C)CCCN1c2ccccc2C(=O)Nc2cccnc21 , write its Ki.
200

For CN1CCN(CC(=O)N2c3ccccc3NC(=O)c3ccccc32)CC1 , write its Ki.
23

For CN(C)CCC(=O)N1c2ccccc2C(=O)Nc2cccnc21 , write its Ki.
45

For CN(C)CCC(=O)N1c2ccccc2NC(=O)c2ccccc21 , write its Ki.
6

For CN1CCN(CC(=O)N2c3ccccc3CCc3ccccc32)CC1 , write its Ki.
200

For CN(C)CCCN1c2ccccc2CCc2ccccc21 [IMIPRAMINE] , write its Ki.
65

For CN(C)CCCN1c2ccccc2NC(=O)c2ccccc21 , write its Ki.
50

For CN(C)CCC(=O)N1c2ccccc2CCc2ccccc21 , write its Ki.
240
